B1: CPEB3 Ribozyme (parent)
chain: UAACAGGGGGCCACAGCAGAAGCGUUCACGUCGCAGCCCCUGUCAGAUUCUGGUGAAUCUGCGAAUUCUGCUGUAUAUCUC

Variants of: B1
test.method.notes: self-cleavage, relative activity (ratio to wild type); higher = more cleavage; in vitro, sequencing
Would you please tag the item MET when its self-cleavage is 0.3 or above, and NOT MET when it is below?

>>> label_class("A28G G73U")
"MET"
>>> label_class("A5C C68G")
"NOT MET"
>>> label_class("G16C U51A")
"NOT MET"
>>> label_class("A5G A21C")
"MET"
>>> label_class("U31C U49A")
"MET"
>>> label_class("A28C A77U")
"NOT MET"
>>> label_class("U67C U72C")
"NOT MET"
>>> label_class("A5G C37U")
"MET"
>>> label_class("G8U C32U")
"NOT MET"
>>> label_class("C4G U60C")
"MET"
>>> label_class("G30U U72G")
"NOT MET"
>>> label_class("C11G A57G")
"MET"
>>> label_class("U48G A57C")
"MET"
>>> label_class("A47U A56G")
"MET"
>>> label_class("A15U C32A")
"NOT MET"
>>> label_class("A18G G73A")
"MET"
>>> label_class("U48C U51G")
"MET"
>>> label_class("A21C U54A")
"NOT MET"
>>> label_class("G8C U80G")
"NOT MET"
>>> label_class("U25G A64G")
"NOT MET"
>>> label_class("U25A U69A")
"NOT MET"
